- target.under.test: human P2Y12 receptor (Homo sapiens, UniProt Q9H244)
- Sequence (Q9H244 whole entry): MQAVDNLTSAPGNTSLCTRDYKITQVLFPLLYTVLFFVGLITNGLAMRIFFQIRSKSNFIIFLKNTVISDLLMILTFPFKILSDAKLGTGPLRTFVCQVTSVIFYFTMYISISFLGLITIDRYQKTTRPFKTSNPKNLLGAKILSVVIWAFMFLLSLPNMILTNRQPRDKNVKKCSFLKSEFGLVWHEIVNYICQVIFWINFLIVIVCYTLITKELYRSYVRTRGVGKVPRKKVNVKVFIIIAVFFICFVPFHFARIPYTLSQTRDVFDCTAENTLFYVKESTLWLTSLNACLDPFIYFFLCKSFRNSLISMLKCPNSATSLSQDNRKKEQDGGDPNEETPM
- assay.text: P2Y12 receptor binding assay
- condition.label: CHO cells with recombinant expression of the human P2Y12 receptor; tritium-labeled 2-methyl-S-ADP; 2 hours at room temperature
Listing of recorded pIC50 by entry.
// returns pIC50 (minus log10 of molar concentration), number only

Please report pIC50 with human P2Y12 receptor (Homo sapiens, UniProt Q9H244) for item `CCCCOC(=O)N1CCN(C(=O)[C@H](CCC(=O)O)NC(=O)c2cc(OC3CCNCC3)nc(-c3ccccc3)n2)CC1` .
7.15

Please report pIC50 with human P2Y12 receptor (Homo sapiens, UniProt Q9H244) for item CCOC(=O)N1CCN(C(=O)[C@H](CCC(=O)O)NC(=O)c2cc(OC3CCOC3)nc(-c3ccccc3)n2)C(C)C1 (stereo partly shown) .
6.90

Please report pIC50 with human P2Y12 receptor (Homo sapiens, UniProt Q9H244) for item CCOC(=O)N1CCN(C(=O)[C@H](CCc2nnn[nH]2)NC(=O)c2cc(OC3CCOC3)nc(-c3ccccc3)n2)CC1 (stereo partly shown) .
7.03
